MEASUREMENT TARGET: T1, Gly-Asp-Asp-Asp-Asp-Lys-β-naphthylamide
T1 chain: GDDDDK
MEASURED PROPERTY: kcat

Would you mind telling me what kcat value was observed for Medaka EP-1 serine protease domain mutant K63R (protein) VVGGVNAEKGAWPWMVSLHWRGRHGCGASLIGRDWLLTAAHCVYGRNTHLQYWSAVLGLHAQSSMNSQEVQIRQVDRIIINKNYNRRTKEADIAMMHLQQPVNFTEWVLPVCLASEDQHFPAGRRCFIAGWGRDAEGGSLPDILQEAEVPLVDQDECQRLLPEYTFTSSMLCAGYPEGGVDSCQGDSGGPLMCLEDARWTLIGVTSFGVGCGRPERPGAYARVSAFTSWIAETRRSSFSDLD ? 3.5 s⁻¹

Bovine EP serine protease (Novagen) (protein) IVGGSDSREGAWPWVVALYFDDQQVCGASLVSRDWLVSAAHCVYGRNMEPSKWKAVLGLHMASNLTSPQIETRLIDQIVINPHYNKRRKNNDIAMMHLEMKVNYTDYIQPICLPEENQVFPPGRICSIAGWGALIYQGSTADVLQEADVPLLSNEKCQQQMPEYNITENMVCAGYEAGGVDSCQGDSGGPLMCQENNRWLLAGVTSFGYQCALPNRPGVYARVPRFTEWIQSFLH ? 12.8 s⁻¹

porcine EP serine protease domain (Ile800 to His1034) (protein) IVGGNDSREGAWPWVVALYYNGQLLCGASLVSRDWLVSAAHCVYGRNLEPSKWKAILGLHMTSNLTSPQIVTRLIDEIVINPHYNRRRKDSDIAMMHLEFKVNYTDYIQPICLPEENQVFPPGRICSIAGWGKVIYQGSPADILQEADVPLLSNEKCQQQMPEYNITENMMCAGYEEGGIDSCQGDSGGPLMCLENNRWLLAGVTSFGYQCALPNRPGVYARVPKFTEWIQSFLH ? 8.83 s⁻¹

Medaka EP-1 serine protease domain (wild-type) (protein) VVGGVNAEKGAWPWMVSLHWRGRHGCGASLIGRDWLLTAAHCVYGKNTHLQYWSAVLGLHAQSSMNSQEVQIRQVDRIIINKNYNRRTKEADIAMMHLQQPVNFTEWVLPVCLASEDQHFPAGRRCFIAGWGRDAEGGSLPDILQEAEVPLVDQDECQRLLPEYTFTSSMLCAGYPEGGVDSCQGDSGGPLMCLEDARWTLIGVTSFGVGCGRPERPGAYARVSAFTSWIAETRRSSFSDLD ? 15.7 s⁻¹

Medaka EP-1 serine protease domain mutant E173A (protein) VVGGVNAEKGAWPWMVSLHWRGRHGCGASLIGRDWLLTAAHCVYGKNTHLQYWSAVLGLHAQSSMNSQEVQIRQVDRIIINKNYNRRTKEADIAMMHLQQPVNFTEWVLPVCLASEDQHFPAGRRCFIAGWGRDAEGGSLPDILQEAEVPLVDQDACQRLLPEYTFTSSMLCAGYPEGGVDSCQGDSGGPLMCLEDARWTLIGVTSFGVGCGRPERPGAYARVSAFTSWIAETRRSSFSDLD ? 5.33 s⁻¹
